Parameter Percent Effect: see the listing below.
Target: Tyrosyl-tRNA synthetase, putative (Trypanosoma cruzi (strain CL Brener)) (UniProt Q4DSP6)
Sequence (Q4DSP6 as listed by the source): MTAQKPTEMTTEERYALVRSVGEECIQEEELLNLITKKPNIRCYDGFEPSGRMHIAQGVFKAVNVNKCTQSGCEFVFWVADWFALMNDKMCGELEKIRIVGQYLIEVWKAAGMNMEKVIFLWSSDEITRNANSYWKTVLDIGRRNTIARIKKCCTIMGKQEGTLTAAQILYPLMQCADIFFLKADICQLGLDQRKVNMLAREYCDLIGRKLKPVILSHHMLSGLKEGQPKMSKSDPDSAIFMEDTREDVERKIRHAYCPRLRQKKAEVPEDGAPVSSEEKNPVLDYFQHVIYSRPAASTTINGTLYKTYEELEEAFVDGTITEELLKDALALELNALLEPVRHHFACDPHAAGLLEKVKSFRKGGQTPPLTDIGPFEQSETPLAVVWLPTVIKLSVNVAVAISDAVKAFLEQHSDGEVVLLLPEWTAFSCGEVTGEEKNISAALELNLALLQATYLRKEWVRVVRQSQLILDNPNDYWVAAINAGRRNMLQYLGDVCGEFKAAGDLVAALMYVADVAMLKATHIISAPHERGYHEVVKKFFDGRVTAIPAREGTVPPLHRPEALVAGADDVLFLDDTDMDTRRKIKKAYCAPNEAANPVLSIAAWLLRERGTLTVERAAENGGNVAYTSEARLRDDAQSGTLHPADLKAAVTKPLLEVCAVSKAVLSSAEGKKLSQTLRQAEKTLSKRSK
Experiment: Trypanosoma cruzi tyrosyl tRNA synthetase (TcYRS) _High Tyrosine SOP
Format: functional
Design: scale not given: in the data most compounds retested in dose-response had high values
Settings: 30 µM
ATTRIBUTE MEASURED: Percent Effect (%)

- COMPOUND: "COc1cccc2c1OCC(C(=O)NC1CCN(S(C)(=O)=O)CC1)C2 (stereo not drawn)"
  ATTRIBUTE MEASURED: "Percent Effect"
  VAL: 5.85
- COMPOUND: "COc1ccc(C2=CCN(C(=O)CN(C)Cc3ccoc3)CC2)cc1"
  ATTRIBUTE MEASURED: "Percent Effect"
  VAL: 8.37
- COMPOUND: "CC(NC(=O)N1CCN(CCc2ccccc2)CC1)c1nncn1C (stereo not drawn)"
  ATTRIBUTE MEASURED: "Percent Effect"
  VAL: 2.63
- COMPOUND: "CS(=O)(=O)NCc1cc2n(n1)CCCN(Cc1nc3ccccc3[nH]1)C2"
  ATTRIBUTE MEASURED: "Percent Effect"
  VAL: 6.92
- COMPOUND: "CCN1CCO[C@]2(CCC[C@H]2COCc2csc(C)n2)C1"
  ATTRIBUTE MEASURED: "Percent Effect"
  VAL: 3.68
- COMPOUND: "Cn1cc(C2COC3(CCN(C(=O)c4ccc(F)cc4)CC3)C2)cn1 (stereo not drawn)"
  ATTRIBUTE MEASURED: "Percent Effect"
  VAL: 2.16
- COMPOUND: "Cn1cnc2c1C(COCc1cccnc1)N(Cc1ccccn1)CC2 (stereo not drawn)"
  ATTRIBUTE MEASURED: "Percent Effect"
  VAL: 4.17
- COMPOUND: "Cc1ccc(N2CC[C@H]3O[C@@H](C(=O)NCc4ccco4)CC[C@H]32)nn1"
  ATTRIBUTE MEASURED: "Percent Effect"
  VAL: 12.1
- COMPOUND: "CC(O)CNC(=O)NCc1cccnc1OC1CCCC1 (stereo not drawn)"
  ATTRIBUTE MEASURED: "Percent Effect"
  VAL: 6.84
- COMPOUND: "CCn1nc(C)c(CCNC(=O)C2CCCN(CC(N)=O)C2)c1C (stereo not drawn)"
  ATTRIBUTE MEASURED: "Percent Effect"
  VAL: 10.1
- COMPOUND: "CC(C(=O)N1CCc2ccccc2C1)n1cc(Br)cn1 (stereo not drawn)"
  ATTRIBUTE MEASURED: "Percent Effect"
  VAL: 4.3
- COMPOUND: "CCn1nc(C)c2ncnc(NCCCN3CCOCC3)c21"
  ATTRIBUTE MEASURED: "Percent Effect"
  VAL: 5.29
- COMPOUND: "CCc1ccc(O)c(C(=O)NC2CCN(Cc3ccncc3)CC2)c1"
  ATTRIBUTE MEASURED: "Percent Effect"
  VAL: 1.44
- COMPOUND: "CN1CCN(CC2CC2)C(=O)c2cnc(N3CCCCC3)nc21"
  ATTRIBUTE MEASURED: "Percent Effect"
  VAL: -2.63
- COMPOUND: "c1ccc(CN2CCc3nnc(CN4CCCCC4)n3CC2)nc1"
  ATTRIBUTE MEASURED: "Percent Effect"
  VAL: 0.526
- COMPOUND: "CCOc1ccccc1C1CCCN1 (stereo not drawn)"
  ATTRIBUTE MEASURED: "Percent Effect"
  VAL: -1.06
- COMPOUND: "CC(=O)N1CCCC1c1cc(N2CCN(C3CCCC3)CC2)cc(C)n1 (stereo not drawn)"
  ATTRIBUTE MEASURED: "Percent Effect"
  VAL: 4.23
- COMPOUND: "O=C1CC(c2cccc(O)c2)c2c(c(C(=O)O)cn2-c2ccccc2)N1 (stereo not drawn)"
  ATTRIBUTE MEASURED: "Percent Effect"
  VAL: 0
- COMPOUND: "CN(Cc1ccc2c(c1)OCCO2)C(=O)Cn1cccnc1=O"
  ATTRIBUTE MEASURED: "Percent Effect"
  VAL: 6.84
- COMPOUND: "COCCc1noc(CNCC2CCCN2c2cccnn2)n1 (stereo not drawn)"
  ATTRIBUTE MEASURED: "Percent Effect"
  VAL: 10.5
- COMPOUND: "Cc1cc(NC(=O)NCc2cccnc2OC(C)C)n(C)n1"
  ATTRIBUTE MEASURED: "Percent Effect"
  VAL: 3.12
- COMPOUND: "COCCO[C@H]1CCN(C(=O)c2ccc[nH]2)[C@H]1Cc1ccncc1"
  ATTRIBUTE MEASURED: "Percent Effect"
  VAL: 3.19
- COMPOUND: "Cc1ccc2c(n1)N(C)CCN(C(=O)C1CC1)C2"
  ATTRIBUTE MEASURED: "Percent Effect"
  VAL: 2.08
- COMPOUND: "CC1COCCN1C(=O)c1cccc(OCc2cscn2)c1 (stereo not drawn)"
  ATTRIBUTE MEASURED: "Percent Effect"
  VAL: 5.26
- COMPOUND: "COc1nc(C)c(C(=O)N(C)Cc2nc(-c3ccccn3)no2)s1"
  ATTRIBUTE MEASURED: "Percent Effect"
  VAL: 6.01
- COMPOUND: "COCCCN(C)Cc1nc2c(cnn2C)c(=O)[nH]1"
  ATTRIBUTE MEASURED: "Percent Effect"
  VAL: 2.46
- COMPOUND: "CN1CCC/C1=N\\S(=O)(=O)c1ccc(NC(=O)c2cccs2)cc1"
  ATTRIBUTE MEASURED: "Percent Effect"
  VAL: 7.84
- COMPOUND: "Cc1cn2c(n1)CCC(NC(=O)CCn1cncn1)C2 (stereo not drawn)"
  ATTRIBUTE MEASURED: "Percent Effect"
  VAL: -1.48
- COMPOUND: "CCc1nc(CN2CCCN(C(=O)COCC3CC3)CC2)cs1"
  ATTRIBUTE MEASURED: "Percent Effect"
  VAL: 11
- COMPOUND: "Cc1cc(N2CCC(CC(N)=O)CC2)nc(-c2ccncc2)n1"
  ATTRIBUTE MEASURED: "Percent Effect"
  VAL: 7.84
- COMPOUND: "O=C(O)c1ccc(S(=O)(=O)Nc2ccc(Cl)c(F)c2)c(F)c1"
  ATTRIBUTE MEASURED: "Percent Effect"
  VAL: -13.3
- COMPOUND: "COc1ccccc1C(O)CNCc1c(C(C)C)nn(C)c1N(C)C (stereo not drawn)"
  ATTRIBUTE MEASURED: "Percent Effect"
  VAL: 11.7
- COMPOUND: "COc1ccc(CNCC2CCN(CC(C)O)CC2)c2ccccc12 (stereo not drawn)"
  ATTRIBUTE MEASURED: "Percent Effect"
  VAL: 4.31
- COMPOUND: "Cc1[nH]c(=O)[nH]c(=O)c1CN1CCCC(CCc2ccccc2)C1 (stereo not drawn)"
  ATTRIBUTE MEASURED: "Percent Effect"
  VAL: 4.76
- COMPOUND: "c1cnc(-c2nc(CN3CCOC(Cn4cncn4)C3)cs2)nc1 (stereo not drawn)"
  ATTRIBUTE MEASURED: "Percent Effect"
  VAL: 1.48
- COMPOUND: "CCn1cc2c(n1)C(COC)CN(Cc1ccccn1)C2 (stereo not drawn)"
  ATTRIBUTE MEASURED: "Percent Effect"
  VAL: 2.63
- COMPOUND: "CCCS(=O)(=O)N1CCN(c2cc(-n3nc(C)cc3C)nc(C)n2)CC1"
  ATTRIBUTE MEASURED: "Percent Effect"
  VAL: 2.15
- COMPOUND: "Fc1cccc(-c2nc(CN3CCCCC3Cn3cncn3)co2)c1 (stereo not drawn)"
  ATTRIBUTE MEASURED: "Percent Effect"
  VAL: 3.45
- COMPOUND: "CC(C)c1nc(CN(C)C2CCN(CCNS(C)(=O)=O)C2)no1 (stereo not drawn)"
  ATTRIBUTE MEASURED: "Percent Effect"
  VAL: 3.92
- COMPOUND: "NCC1Cn2nnc(-c3cccc(F)c3)c2CO1 (stereo not drawn)"
  ATTRIBUTE MEASURED: "Percent Effect"
  VAL: 3.23
- COMPOUND: "CCOc1cccc(C(C)NC(=O)N2CCC(C(N)=O)CC2)c1 (stereo not drawn)"
  ATTRIBUTE MEASURED: "Percent Effect"
  VAL: 3.7
- COMPOUND: "Cc1cccn2c(=O)cc(CN3CCCCC3Cn3cncn3)nc12 (stereo not drawn)"
  ATTRIBUTE MEASURED: "Percent Effect"
  VAL: -1.07
- COMPOUND: "CCN1CCN(CC(O)c2ccc(OC(F)(F)F)cc2)CC1 (stereo not drawn)"
  ATTRIBUTE MEASURED: "Percent Effect"
  VAL: 6.4
- COMPOUND: "CC1CCN(C(=O)c2cccc3ncccc23)CC1"
  ATTRIBUTE MEASURED: "Percent Effect"
  VAL: 4.74
- COMPOUND: "Cc1cccn2cc(CC(=O)N3CCCC(n4cncn4)C3)nc12 (stereo not drawn)"
  ATTRIBUTE MEASURED: "Percent Effect"
  VAL: 3.35
- COMPOUND: "CNS(=O)(=O)c1ccc(C(=O)N2CCCC2Cc2ccccc2)o1 (stereo not drawn)"
  ATTRIBUTE MEASURED: "Percent Effect"
  VAL: 4.43
- COMPOUND: "Cc1cnn(CC2CCCCN2Cc2cc(C)on2)c1 (stereo not drawn)"
  ATTRIBUTE MEASURED: "Percent Effect"
  VAL: 1.44
- COMPOUND: "CC(C)C(=O)N1CCCC(c2cc(C(F)F)n3ncnc3n2)C1 (stereo not drawn)"
  ATTRIBUTE MEASURED: "Percent Effect"
  VAL: -3.23
